test: Cytotoxicity against human TZM-bl assessed as cell viability at 4 uM after 2 days; format: cell-based; settings: 48 h
readout-kind: Activity

INSERT INTO assay_data (compound, recorded_result) VALUES
  ('C=C(C)[C@@H]1CC[C@]2(C(=O)NCCCCCCCCNC(=O)C(CCC#N)NC(=O)OC(C)(C)C)CC[C@]3(C)[C@H](CC[C@@H]4[C@@]5(C)CC[C@H](O)C(C)(C)[C@@H]5CC[C@]43C)[C@@H]12 (stereo partly drawn)', 'Non-toxic'),
  ('C=C(C)[C@@H]1CC[C@]2(C(=O)NCCCCCCCCNC(=O)[C@H](CCC(N)=O)NC(=O)OC(C)(C)C)CC[C@]3(C)[C@H](CC[C@@H]4[C@@]5(C)CC[C@H](O)C(C)(C)[C@@H]5CC[C@]43C)[C@@H]12', 'Non-toxic'),
  ('C=C(C)[C@@H]1CC[C@]2(C(=O)NCCCCCCCCC(=O)N[C@@H](C)C(=O)OC)CC[C@]3(C)[C@H](CC[C@@H]4[C@@]5(C)CC[C@H](O)C(C)(C)[C@@H]5CC[C@]43C)[C@@H]12', 'Non-toxic');

* * *

Answer each item with its documented EC50.
test system: Human immunodeficiency virus 1; assay: Antiviral activity against HIV1 NL4-3 infected in human TZM-bl cells assessed as reduction in luciferase gene expression by luminescence assay; assay type: functional, organism-based; conditions: Human immunodeficiency virus 1, NL4-3, TZM-bl
Note: state the figure and append the unit.

INSERT INTO measurements (molecular_string, recorded_result) VALUES
  ('C=C(C)[C@@H]1CC[C@]2(C(=O)NCCCCCCCCCNC(=O)[C@H](CCC(N)=O)NC(=O)OC(C)(C)C)CC[C@]3(C)[C@H](CC[C@@H]4[C@@]5(C)CC[C@H](O)C(C)(C)[C@@H]5CC[C@]43C)[C@@H]12', '120 nM'),
  ('C=C(C)[C@@H]1CC[C@]2(C(=O)NCCCCCCCCC(=O)N[C@@H](C)C(=O)OC)CC[C@]3(C)[C@H](CC[C@@H]4[C@@]5(C)CC[C@H](O)C(C)(C)[C@@H]5CC[C@]43C)[C@@H]12', '70 nM'),
  ('C=C(C)[C@@H]1CC[C@]2(C(=O)NCCCCCCCCNC(=O)[C@H](C)NC(=O)OC(C)(C)C)CC[C@]3(C)[C@H](CC[C@@H]4[C@@]5(C)CC[C@H](O)C(C)(C)[C@@H]5CC[C@]43C)[C@@H]12', '90 nM');

// C=C(C)[C@@H]1CC[C@]2(C(=O)NCCCCCCCC(=O)N[C@@H](CCC(N)=O)C(=O)OC)CC[C@]3(C)[C@H](CC[C@@H]4[C@@]5(C)CC[C@H](O)C(C)(C)[C@@H]5CC[C@]43C)[C@@H]12 : EC50 value = 140 nM

* * *

Answer each item with its documented CLH.
tested on: Liver microsomes; conditions: human, 1 µM
One number for each entry, in µL/min/mg.

INSERT INTO measurements (molecular_string, target_or_test_system, readout_kind, recorded_result) VALUES
  ('C=C(C)[C@@H]1CC[C@]2(C(=O)NCCCCCCCCC(=O)N[C@@H](CCC(N)=O)C(=O)OCc3ccccc3)CC[C@]3(C)[C@H](CC[C@@H]4[C@@]5(C)CC[C@H](O)C(C)(C)[C@@H]5CC[C@]43C)[C@@H]12', 'Liver microsomes', 'CLH', 169);

Please turn your attention to the following entry.
// COC(=O)[C@H](CCC(N)=O)NC(=O)CCCCCCCCNC(=O)[C@]12CC[C@@H](C(C)C)[C@@H]1[C@H]1CC[C@@H]3[C@@]4(C)CC[C@H](O)C(C)(C)[C@@H]4CC[C@@]3(C)[C@]1(C)CC2 : CLH value = 219

* * *

Answer each item with its documented pEC50.
test system: Human immunodeficiency virus 1; test: Antiviral activity against HIV1 NL4-3 infected in human TZM-bl cells assessed as reduction in luciferase gene expression by luminescence assay; type: functional, organism-based; details: Human immunodeficiency virus 1, NL4-3, TZM-bl
Answers are plain numbers, as −log10 of the molar value.

Look over these answered cases.
INSERT INTO measurements (molecular_string, target_or_test_system, readout_kind, recorded_result) VALUES
  ('C=C(C)[C@@H]1CC[C@]2(C(=O)NCCCCCCCCC(=O)N[C@@H](CCC(N)=O)C(=O)OCc3ccccc3)CC[C@]3(C)[C@H](CC[C@@H]4[C@@]5(C)CC[C@H](O)C(C)(C)[C@@H]5CC[C@]43C)[C@@H]12', 'Human immunodeficiency virus 1', 'pEC50', 6.92),
  ('C=C(C)[C@@H]1CC[C@]2(C(=O)NCCCCCCCCC(=O)N[C@H](C(=O)OC)[C@@H](C)OC(C)(C)C)CC[C@]3(C)[C@H](CC[C@@H]4[C@@]5(C)CC[C@H](O)C(C)(C)[C@@H]5CC[C@]43C)[C@@H]12', 'Human immunodeficiency virus 1', 'pEC50', 5.46),
  ('C=C(C)[C@@H]1CC[C@]2(C(=O)NCCCCCCCNC(C)=O)CC[C@]3(C)[C@H](CC[C@@H]4[C@@]5(C)CC[C@H](O)C(C)(C)[C@@H]5CC[C@]43C)[C@@H]12', 'Human immunodeficiency virus 1', 'pEC50', 7.10);

Please turn your attention to the following entry.
Note to self: pEC50 of C=C(C)[C@@H]1CC[C@]2(C(=O)NCCCCCCCCC(=O)N3CCC[C@H]3C(=O)OC)CC[C@]3(C)[C@H](CC[C@@H]4[C@@]5(C)CC[C@H](O)C(C)(C)[C@@H]5CC[C@]43C)[C@@H]12 with Human immunodeficiency virus 1 was 6.80

* * *

tested on: Human immunodeficiency virus 1; assay: Antiviral activity against HIV1 NL4-3 infected in human TZM-bl cells assessed as reduction in luciferase gene expression by luminescence assay; assay type: functional, organism-based; conditions: Human immunodeficiency virus 1, NL4-3, TZM-bl
Answer each item with its documented EC50.

Look over these answered cases.
INSERT INTO results (molecular_string, recorded_result) VALUES
  ('C=C(C)[C@@H]1CC[C@]2(C(=O)NCCOCCOCCNC(C)=O)CC[C@]3(C)[C@H](CC[C@@H]4[C@@]5(C)CC[C@H](O)C(C)(C)[C@@H]5CC[C@]43C)[C@@H]12', '> 4 µM'),
  ('C=C(C)[C@@H]1CC[C@]2(C(=O)NCCCCCCC(=O)N[C@@H](CCC(N)=O)C(=O)OC)CC[C@]3(C)[C@H](CC[C@@H]4[C@@]5(C)CC[C@H](O)C(C)(C)[C@@H]5CC[C@]43C)[C@@H]12', '> 4 µM');

Please turn your attention to the following entry.
// C=C(C)[C@@H]1CC[C@]2(C(=O)NCCCCCCCCCNC(=O)[C@H](C)NC(=O)OC(C)(C)C)CC[C@]3(C)[C@H](CC[C@@H]4[C@@]5(C)CC[C@H](O)C(C)(C)[C@@H]5CC[C@]43C)[C@@H]12 : EC50 value = > 4 µM

Where do these numbers come from? They come from ChEMBL document CHEMBL2057155.
